assay: Oral bioavailability in CD1 (ICR) mouse at 10 mg/kg; type: ADME, organism-based; conditions: in vivo
assay.readout: bioavailability (%)
The answer is to be given in %; state only the numeric part.

Measured bioavailability of CCc1nn2c(-c3c(OC)cc(COC)cc3OC)cccc2c1N(CC1CCOCC1)CC1CC1.Cc1ccc(S(=O)(=O)O)cc1 : 31

###

system: Liver microsomes; test: Intrinsic clearance in human liver microsomes after 15 mins; type: ADME, Microsome
assay.readout: CLint (µL/min/mg)
The answer is to be given in µL/min/mg; state only the numeric part.

Measured CLint of CCCN(CC1CCOCC1)c1c(CC)nn2c(-c3c(OC)cc(COC)cc3OC)cccc12 : 700

Measured CLint of COc1cc(C)cc(OC)c1-c1cccc2c(N(CC3CCOCC3)CC3CC3)c(OC)nn12 : 570

Measured CLint of CCc1nn2c(-c3c(OC)cccc3OC)cccc2c1N(CC1CCOCC1)CC1CC1 : 740

Measured CLint of CCc1nn2c(-c3c(C)cc(C)cc3OC)cccc2c1N(CC1CC1)CC1CCCO1 (stereo not given) : 1230

Measured CLint of CCc1nn2c(-c3c(OC)cc(OC)cc3OC)cccc2c1N(CC1CCOCC1)CC1CC1 : 450
